- Tested on: CEM-4
- Test Summary: Cytotoxic concentration required to reduce the viability of uninfected cells by 50% after 5 days of incubation in the presence on CEM-4 cells.
- Assay type: functional
- Condition Details: Homo sapiens, CEM-4, 120 h
Hi there, I'd appreciate the recorded CC50 for every entry that follows.

Consider the molecule CCCCCCCCCCCCSCCCCCCCCCCCCCCC(=O)NCCCCCCCCCCC(=O)NC(CCC(=O)[O-])C(=O)O.[Na+] (stereo not given) and give its measured CC50.
> 100 µg/mL

Sample CCCCCCCCCCCCSCCCCCCC(=O)NCCCCCCCCCCC(=O)NCC(=O)[O-].[Na+] — what was its CC50?
118 µg/mL

Value lookup for CC50; key = CCCCCCCCCCCCSCCCCCCCCCCCCCCCCCCC(=O)N(C)CCCCCCCCCCC(=O)[O-].[Na+]
> 200 µg/mL

# query: CC50 of entry CCCCCCCCCCCCSCCCCCCCCCCCCCCCCCCCCCCCCCCCCCCCCCCCCCCCCCCCCCCCCCCC(=O)N(CC)CCCCCCCCCCC(=O)NC(CCC(=O)[O-])C(=O)O.[Na+] (stereo not given)
> 300 µg/mL

Tell me the measured CC50 of CCCCCCCCCCCCSCCCCCCCCCCC(=O)N(CC)CCCCCCCCCCC(=O)NCC(=O)[O-].[Na+] , please.
> 100 µg/mL

Query (molecule): CCCCCCCCCCCCSCCCCCCCCCCCCC(=O)NCCCCCCCCCCC(=O)[O-].[Na+] ; field requested: CC50
37 µg/mL

Field request: CC50 | item: CCCCCCCCCCCCSCCCCCCCCCCCCCCCCCCCCC(=O)N(CC)CCCCCCCCCCC(=O)NC(CCC(=O)[O-])C(=O)O.[Na+] (stereo not given)
> 300 µg/mL

Returns the measured CC50 for the input molecule. Input: CCCCCCCCCCCCSCCCCCCCCCCCCCCCCCCCCCCCCCCC(=O)N(C)CCCCCCCCCCC(=O)[O-].[Na+]
> 200 µg/mL

State the recorded CC50 for this entry: CCCCCCCCCCCCSCCCCC(=O)NCCCCCCCCCCC(=O)NCCC(=O)[O-].[Na+]
> 300 µg/mL

Can you share its CC50? I mean this molecule: CCCCCCCCCCCCSCCCCCCC(=O)N(CC)CCCCCCCCCCC(=O)NC(CCC(=O)[O-])C(=O)O.[Na+] (stereo not given)
> 100 µg/mL

Query: CC50; subject: CCCCCCCCCCCCSCCCCCCCCCCCCCCCCCCCCCCCCCCCCCCCCCCCCCCCCC(=O)NCCCCCCCCCCC(=O)[O-].[Na+]
> 50 µg/mL

Look at this molecule and give its reported CC50. CCCCCCCCCCCCSCCCCCCC(=O)NCCCCCCCCCCC(=O)NCCC(=O)[O-].[Na+]
> 300 µg/mL

Entry CCCCCCCCCCCCSCCCCC(=O)NCCCCCCCCCCC(=O)NC(CCC(=O)[O-])C(=O)O.[Na+] (stereo not given) : reported CC50 = ?
> 100 µg/mL

Endpoint output: CC50 of CCCCCCCCCCCCSCCCCCCCCCCCCCCCCCCCCCCCCCCCCCCC(=O)NCCCCCCCCCCC(=O)NC(CCC(=O)[O-])C(=O)O.[Na+] (stereo not given) . Value?
> 100 µg/mL

I am curious: what CC50 value has been reported for CCCCCCCCCCCCSCCCCCCCCCCC(=O)N(CC)CCCCCCCCCCC(=O)NCCC(=O)[O-].[Na+] ?
50 µg/mL

Look up CC50: CCCCCCCCCCCCSCCCCCCCCCCC(=O)N(C)CCCCCCCCCCC(=O)[O-].[Na+]
> 200 µg/mL

Tell me the measured CC50 of CCCCCCCCCCCCSCCCCCCCCCCCCCCCCCCCCCCCCCCCCCCCCCCCCCCCCCCCCCCCCCCCCCCCCCCCCC(=O)N(CC)CCCCCCCCCCC(=O)NCCC(=O)[O-].[Na+] , please.
> 100 µg/mL

For the molecule shown here, CCCCCCCCCCCCSCCCCCCCCCCCCC(=O)NCCCCCCCCCCC(=O)NCCC(=O)[O-].[Na+] , give the reported CC50.
42 µg/mL

Fill blank: measured CC50 of the molecule CCCCCCCCCCCCSCCCCCCCCCCCCCCCCC(=O)N(CC)CCCCCCCCCCC(=O)NCCC(=O)[O-].[Na+] is ____.
> 100 µg/mL

Give the measured CC50 of CCCCCCCCCCCCSCCCCCCCCCCCCCCCCCCCCCCCCCCCCCCCCCCC(=O)N(CC)CCCCCCCCCCC(=O)NC(CCC(=O)[O-])C(=O)O.[Na+] (stereo not given) .
> 300 µg/mL

Fill in the blank: the reported CC50 of CCCCCCCCCCCCSCCCCCCCCCCC(=O)NCCCCCCCCCCC(=O)NC(CCC(=O)[O-])C(=O)O.[Na+] (stereo not given) is ____.
> 100 µg/mL

What does the record list as CC50 for CCCCCCCCCCCCSCCCCCCCCCCCCCCCCCCCCCCC(=O)N(CC)CCCCCCCCCCC(=O)[O-].[Na+] ?
50 µg/mL

Which CC50 reading was recorded for the molecule CCCCCCCCCCCCSCCCCCCCCCCCCCCCCCCCCCCCCCCCCCCCCCCCCCCCCC(=O)N(C)CCCCCCCCCCC(=O)[O-].[Na+] ?
> 200 µg/mL

Could you tell me which CC50 is on file for CCCCCCCCCCCCSCCCCCCCCCCCCCCCCCCCCCCCCCCCCCCCCCCCCCCCCCCCCCCCCCCCCCCCCCCCCCCCCCCCCCCCCCCCCCCCCC(=O)N(CC)CCCCCCCCCCC(=O)[O-].[Na+] ?
30 µg/mL

I'd like to know its CC50. The molecule in question is CCCCCCCCCCCCSCCCCCCCCCCCCCCC(=O)NCCCCCCCCCCC(=O)NCC(=O)[O-].[Na+]
> 300 µg/mL

Give the measured CC50 of CCCCCCCCCCCCSCCCCCCCCC(=O)N(CC)CCCCCCCCCCC(=O)[O-].[Na+] .
100 µg/mL

Fill blank: measured CC50 of the molecule CCCCCCCCCCCCSCCCCCCCCCCCCCCCCCCCCCCCCCCCCCCCCC(=O)N(CC)CCCCCCCCCCC(=O)[O-].[Na+] is ____.
27 µg/mL

Could you tell me which CC50 is on file for CCCCCCCCCCCCSCCCCCCC(=O)N(CC)CCCCCCCCCCC(=O)NCC(=O)[O-].[Na+] ?
50 µg/mL

Recorded CC50 for CCCCCCCCCCCCSCCCCCCCCCCCCCCCCCCCCCCC(=O)NCCCCCCCCCCC(=O)[O-].[Na+] , please?
99 µg/mL

For the molecule CCCCCCCCCCCCSCCCCCCCCCCCCCCCCCCCCCCCCCCCCCCC(=O)N(CC)CCCCCCCCCCC(=O)NCC(=O)[O-].[Na+] , what CC50 is on record?
80 µg/mL
